remaining at 0.5 h values by entry
# test_name: Stability in Sprague-Dawley rat plasma assessed as compound remaining at 50 mg/ml after 30 mins
# Assay type: ADME, cell-free
# experimental_conditions: read-out: Stability
All answers are understood in %, so give the number only.

The cases that follow already have their remaining at 0.5 h on record.
> print(dat)
                              sample.smiles  measured.attribute  obs.value
1  CCCc1nc(C(C)(C)O)c(C(=O)OCCCCCCC(=O)O)n1Cc1ccc(-c2ccccc2C2=NNNN2)cc1  remaining at 0.5 h       98.8
2  CCCc1nc(C(C)(C)O)c(C(=O)OCCCCCCC(=O)OCC)n1Cc1ccc(-c2ccccc2C2=NNNN2)cc1  remaining at 0.5 h       81.1
3  CCCc1nc(C(C)(C)O)c(C(=O)NCCCCCC[N+](=O)[O-])n1Cc1ccc(-c2ccccc2C2=NNNN2)cc1  remaining at 0.5 h        101
4  CCCCCCCCOC(=O)c1c(C(C)(C)O)nc(CCC)n1Cc1ccc(-c2ccccc2C2=NNNN2)cc1  remaining at 0.5 h       90.2

In plain terms, CCCc1nc(C(C)(C)O)c(C(=O)NCCCCCCC(=O)O)n1Cc1ccc(-c2ccccc2C2=NNNN2)cc1 has a documented remaining at 0.5 h of 97.5

In plain terms, CCCc1nc(C(C)(C)O)c(C(=O)OCc2c[nH]c(=O)[nH]c2=O)n1Cc1ccc(-c2ccccc2C2=NNNN2)cc1 has a documented remaining at 0.5 h of 96.3

In plain terms, CCCc1nc(C(C)(C)O)c(C(=O)NCCNCCO)n1Cc1ccc(-c2ccccc2C2=NNNN2)cc1 has a documented remaining at 0.5 h of 98.9

In plain terms, CCCc1nc(C(C)(C)O)c(C(=O)OCCCCCC[N+](=O)[O-])n1Cc1ccc(-c2ccccc2C2=NNNN2)cc1 has a documented remaining at 0.5 h of 100

Where these numbers come from: ChEMBL document CHEMBL1255522
